B1: TSPAN10 (parent)
chain: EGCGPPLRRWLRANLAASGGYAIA

Variants of: B1
Assay: protein stability index of a GFP-peptide fusion (GPS, HEK-293T) (PSI 1-6); higher = more stable;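 further: lentivirally expressed fusions sorted by FACS into six bins by GFP to DsRed ratio, PSI derived from sequencing read proportions per bin multiplied by bin number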
Details: c terminus: a fixed tail appended
observation_type: protein stability index

G2L	1.57
L15G	2.59
G4K	2.31
E1S	2.37
G4W	2.15
L15R	3.06

**Query** Can you look up the measured protein stability index of `A22D` for me?
**Result** 2.46

**Query** // protein stability index lookup, key: `I23V`
**Result** 2.11

**Query** Give its protein stability index value. Item: `G19M`
**Result** 1.24

**Query** Tell me the measured protein stability index of `L15M` , please.
**Result** 2.16

**Query** Fill in: protein stability index of `A13I` is ___
**Result** 1.67

**Query** // lookup protein stability index for `P5Y`
**Result** 1.6

**Query** Please report the recorded protein stability index for `N14A` .
**Result** 2.3

**Query** I am curious: what protein stability index value has been reported for `G20A` ?
**Result** 1.94

**Query** Could you tell me which protein stability index is on file for `R12M` ?
**Result** 1.9

**Query** GET /values?readout=protein stability index&item= `A24Q`
**Result** 2.6

All values here come from the supplement of paper PMC10567573.
